Entry source: paper PMC12416549

Target: T1, TNFR1 (Homo sapiens, UniProt P19438)
T1 chain: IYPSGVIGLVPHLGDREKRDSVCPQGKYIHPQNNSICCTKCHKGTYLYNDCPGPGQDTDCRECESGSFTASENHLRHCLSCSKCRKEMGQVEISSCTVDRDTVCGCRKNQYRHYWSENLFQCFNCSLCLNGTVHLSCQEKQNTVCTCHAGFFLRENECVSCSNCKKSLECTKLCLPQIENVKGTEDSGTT
Test: yeast display SC50
METRIC NAME: apparent Kd (screen) (nM)

INSERT INTO assay_data (binder, endpoint_value) VALUES
  ('L7A (designed binder) MTLQELAREEALRRAEAEAFRYALELLAEKFPEQKEYLLDLAEEIESQIRSLSGVDVEDVRKFLDKEWAWVKELLAEHPAELAEVEAARAARLAELRAEVEAKVAA', 11.4),
  ('I49S (designed binder) MTLQELLREEALRRAEAEAFRYALELLAEKFPEQKEYLLDLAEEIESQSRSLSGVDVEDVRKFLDKEWAWVKELLAEHPAELAEVEAARAARLAELRAEVEAKVAA', 0.539),
  ('R50V (designed binder) MTLQELLREEALRRAEAEAFRYALELLAEKFPEQKEYLLDLAEEIESQIVSLSGVDVEDVRKFLDKEWAWVKELLAEHPAELAEVEAARAARLAELRAEVEAKVAA', 1.4),
  ('M1L (designed binder) LTLQELLREEALRRAEAEAFRYALELLAEKFPEQKEYLLDLAEEIESQIRSLSGVDVEDVRKFLDKEWAWVKELLAEHPAELAEVEAARAARLAELRAEVEAKVAA', 0.653),
  ('K62C (designed binder) MTLQELLREEALRRAEAEAFRYALELLAEKFPEQKEYLLDLAEEIESQIRSLSGVDVEDVRCFLDKEWAWVKELLAEHPAELAEVEAARAARLAELRAEVEAKVAA', 0.49),
  ('L38A (designed binder) MTLQELLREEALRRAEAEAFRYALELLAEKFPEQKEYALDLAEEIESQIRSLSGVDVEDVRKFLDKEWAWVKELLAEHPAELAEVEAARAARLAELRAEVEAKVAA', 12.5),
  ('S53I (designed binder) MTLQELLREEALRRAEAEAFRYALELLAEKFPEQKEYLLDLAEEIESQIRSLIGVDVEDVRKFLDKEWAWVKELLAEHPAELAEVEAARAARLAELRAEVEAKVAA', 2.25),
  ('R89V (designed binder) MTLQELLREEALRRAEAEAFRYALELLAEKFPEQKEYLLDLAEEIESQIRSLSGVDVEDVRKFLDKEWAWVKELLAEHPAELAEVEAAVAARLAELRAEVEAKVAA', 0.79),
  ('A83H (designed binder) MTLQELLREEALRRAEAEAFRYALELLAEKFPEQKEYLLDLAEEIESQIRSLSGVDVEDVRKFLDKEWAWVKELLAEHPAELHEVEAARAARLAELRAEVEAKVAA', 0.539),
  ('A106R (designed binder) MTLQELLREEALRRAEAEAFRYALELLAEKFPEQKEYLLDLAEEIESQIRSLSGVDVEDVRKFLDKEWAWVKELLAEHPAELAEVEAARAARLAELRAEVEAKVAR', 0.539),
  ('E5F (designed binder) MTLQFLLREEALRRAEAEAFRYALELLAEKFPEQKEYLLDLAEEIESQIRSLSGVDVEDVRKFLDKEWAWVKELLAEHPAELAEVEAARAARLAELRAEVEAKVAA', 0.653),
  ('K72F (designed binder) MTLQELLREEALRRAEAEAFRYALELLAEKFPEQKEYLLDLAEEIESQIRSLSGVDVEDVRKFLDKEWAWVFELLAEHPAELAEVEAARAARLAELRAEVEAKVAA', 0.593),
  ('A23V (designed binder) MTLQELLREEALRRAEAEAFRYVLELLAEKFPEQKEYLLDLAEEIESQIRSLSGVDVEDVRKFLDKEWAWVKELLAEHPAELAEVEAARAARLAELRAEVEAKVAA', 0.653),
  ('P32L (designed binder) MTLQELLREEALRRAEAEAFRYALELLAEKFLEQKEYLLDLAEEIESQIRSLSGVDVEDVRKFLDKEWAWVKELLAEHPAELAEVEAARAARLAELRAEVEAKVAA', 0.593),
  ('Q34S (designed binder) MTLQELLREEALRRAEAEAFRYALELLAEKFPESKEYLLDLAEEIESQIRSLSGVDVEDVRKFLDKEWAWVKELLAEHPAELAEVEAARAARLAELRAEVEAKVAA', 0.49),
  ('L24I (designed binder) MTLQELLREEALRRAEAEAFRYAIELLAEKFPEQKEYLLDLAEEIESQIRSLSGVDVEDVRKFLDKEWAWVKELLAEHPAELAEVEAARAARLAELRAEVEAKVAA', 0.653);
